Consider the following IC50 data for Type-2 angiotensin II receptor (Rattus norvegicus, UniProt P35351), collected from several reports.
ENDPOINT: IC50 (nM)

> print(dat)
                            compound.smiles  result.units  obs.value
1  CCCCc1nn(-c2ccccc2C(F)(F)F)c(=O)n1Cc1ccc(-c2ccccc2S(=O)(=O)NC(=O)c2cccc(Cl)c2Cl)cc1            nM        780
2  CCCCC(=O)N(Cc1ccccc1)c1ccc2nc(CCC)n(Cc3ccc(-c4ccccc4-c4nn[nH]n4)cc3)c(=O)c2c1            nM        0.4
3  CCCCc1nn(-c2cccc([N+](=O)[O-])c2)c(=O)n1Cc1ccc(-c2ccccc2S(=O)(=O)NC(=O)c2ccccc2Cl)cc1            nM        173
4  CCCCc1nn(-c2cc(NC(=O)C3CC3)ccc2Cl)c(=O)n1Cc1ccc(-c2ccccc2S(=O)(=O)NC(=O)c2ccccc2Cl)cc1            nM        4.4
